Molecular target: T1, CeSMARCA4 GST–BD fusion (C. elegans SMARCA4/SWSN-4 bromodomain, residues D1179–N1289, GST-tagged) (C. elegans, UniProt G5EF53 1179-1289)
T1 construct: SWSN-4 (CeSMARCA4, ortholog of human SMARCA4/BRG1), C. elegans, bromodomain, residues D1179-N1289; Cloned from Bristol N2 cDNA into a pGEX vector; also called GST-CeSMARCA4; CeSMARCA4 BD; source: E. coli BL21 (DE3), purified (Glutathione Sepharose 4B, eluted with reduced glutathione, dialysed); not shown: GST, N-terminal, kept
T1 sequence (looked up): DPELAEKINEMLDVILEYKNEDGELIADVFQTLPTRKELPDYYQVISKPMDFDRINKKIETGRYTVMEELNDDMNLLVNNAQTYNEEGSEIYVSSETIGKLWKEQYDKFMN
Assay: ITC; MicroCal Auto-iTC200, 293 or 298 K, 10 mM HEPES, 100 mM NaCl, 2.5% glycerol, pH 7.3; protein 50–100 μM in the cell, peptide 500–1000 μM in the syringe; single-site binding model
Settings: both partners purified
Ends that are not written are not given here.
assayMetric: Kd (µM)
Give the value in µM but do not write µM after it.

For ARKSTGGK(Ac)APRKQL (peptide, UniProt P68431 8-21, looked up, histone H3 N-terminal tail, residues 7-20; also called H3K14ac peptide) [histone H3_(7–20)K14ac peptide] the binder record lists Kd as 11.6

Where do these numbers come from? They come from paper PMC8506967.
